Attribute: viability
- MEASUREMENT DESCRIPTION: drug combination growth inhibition, ovarian cancer – cell-based, oncology-focused library, rucaparib conditional, profiling panel (AID 1508598)
- STATED CONDITIONS: patient-derived ovarian cancer cells, CellTiter-Glo viability, 144 h; at 0.0195 µM; OCI-C5x cells; without rucaparib; stronger effect = lower value

# COMPOUND, RESULT UNIT, viability
rows = [
    ("C=CC(=O)Nc1cccc(Nc2nc(Nc3ccc(NC4CN(CCF)C4)cc3OC)ncc2C(F)(F)F)c1", "%", 108),
    ("CCc1cc(Nc2nccc(-c3c(-c4ccc(OC)c(C(=O)Nc5c(F)cccc5F)c4)nc4ccccn34)n2)c(OC)cc1N1CCC(N2CCN(S(C)(=O)=O)CC2)CC1", "%", 119),
    ("CC1(O)CC(c2nc(-c3ccc4ccc(-c5ccccc5)nc4c3)c3c(N)nccn23)C1 (centres undefined)", "%", 127),
    ("CN(C)N=Nc1nc[nH]c1C(N)=O", "%", 105),
    ("C=CCn1c(=O)c2cnc(Nc3ccc(N4CCN(C)CC4)cc3)nc2n1-c1cccc(C(C)(C)O)n1", "%", 102),
    ("O=C(CCCCCCC(=O)Nc1ccc([C@H]2O[C@@H](CSc3nc(-c4ccccc4)c(-c4ccccc4)o3)C[C@@H](c3ccc(CO)cc3)O2)cc1)NO", "%", 130),
    ("CC(C)C[C@H](NC(=O)CNC(=O)c1cc(Cl)ccc1Cl)B1OC(=O)CC(CC(=O)O)(C(=O)O)O1 (some centres undefined)", "%", 119),
    ("CC(C)c1cc(-c2n[nH]c(=O)n2-c2ccc3c(ccn3C)c2)c(O)cc1O", "%", 117),
    ("Cn1c(=O)c(F)c(Nc2ccc(I)cc2F)c2c(=O)n(C[C@@H](O)CO)cnc21", "%", 111),
]
